Measured values drawn from PubChem BioAssay AID493008 for this set.

molecular target: Troponin I, cardiac muscle (Homo sapiens) + Troponin T, cardiac muscle (Homo sapiens) + Troponin C, slow skeletal and cardiac muscles (Homo sapiens) (UniProt P19429+P45379+P63316); test: calcium sensitizers of cardiac thin filaments – biochemical, IANBD-TnC fluorescence, EC20 calcium, primary screen (AID 493008); conditions: IANBD-labeled TnC RTF fluorescence at EC20 calcium; at 7.2 µM; active compounds read high; 0% EC20 calcium, 100% full calcium;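 also: rise in fluorescence read as greater calcium sensitivity of cardiac thin filaments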
In all, about 340,000 compounds went through this assay and about 800 (0.24%) were called active. The sample as a whole holds a higher share of actives than the screen did.
Give activation for every item shown.
Answers are plain numbers, in %.

Input line: Which activation value belongs to CCOc1cc(/C=C(\C#N)c2nc(-c3cccs3)c(NC(C)=O)s2)ccc1O ?
Output line: 53.3

Give measured activation for every item shown.
1. CCCCNC(=O)Nc1c(C)cc(SC#N)cc1C
2. O=C(NCCc1c[nH]c2ccccc12)C1CCN(Cc2ccc(Br)cc2)CC1
3. O=C(c1c(Cl)nc2sccn12)N1CCCc2ccccc21
4. Cc1ccc(C(=O)O)c(NC=O)c1OCc1ccccc1
5. N#C/C(=C/c1ccc(N2CCCCC2)o1)C(=O)NCCc1c[nH]c2ccccc12

Output line:
-8.62
-15.1
-2.79
-0.38
98.5

###

target: Troponin I, cardiac muscle (Homo sapiens) + Troponin T, cardiac muscle (Homo sapiens) + Troponin C, slow skeletal and cardiac muscles (Homo sapiens) (UniProt P19429+P45379+P63316); experiment: calcium sensitizers of cardiac thin filaments – biochemical, IANBD-TnC fluorescence, EC20 calcium, primary screen (AID 493008); conditions: IANBD-labeled TnC RTF fluorescence at EC20 calcium; at 7.2 µM; active compounds read high; 0% EC20 calcium, 100% full calcium;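 also: rise in fluorescence read as greater calcium sensitivity of cardiac thin filaments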
The campaign covered roughly 340,000 compounds. About 800 (0.24%) were called active. Many of the other results were omitted from the sample, so actives are more common in it than they were.
recorded.endpoint: activation

Worked set:
Input line: Which activation value belongs to O=C(COC(=O)Cn1cnc2ccccc21)Nc1cccc2c1C(=O)c1ccccc1C2=O ?
Output line: 45.7% (active)

Input line: Can you check Cc1nc(N=C(N)N)nc2c(C)cccc12 next?
Output line: -2.23% (inactive)

Input line: Can you check S=C(Nc1ccccc1)Nc1ccc2ccccc2c1 next?
Output line: -10.4% (inactive)

Input line: Can you check COc1cc(S(=O)(=O)N2CCN=C2c2ccccc2)ccc1Cl next?
Output line: -3% (inactive)

Input line: Can you check COc1ccc(/C=C/C(=O)OCC(=O)NC2CCCCCC2)cc1OC next?
Output line: -4.52% (inactive)

Input line: Can you check O=C(Cn1cnc2ccccc21)Nc1ccccc1-c1ccccc1 next?
Output line: -3.39% (inactive)

Input line: Can you check O=C(NC(=O)N1CCOCC1)c1ccccc1 next?
Output line: -4.59% (inactive)

Input line: Can you check CCCN(CCC)c1nc2c(C)cccn2c(=O)c1/C=C1/SC(=S)N(Cc2ccco2)C1=O next?
Output line: 34% (active)

Give measured activation for every item shown.
1. O=C(CSc1ncccn1)N1CCCC1
2. O=C(/C=C(O)/C=C/c1ccc(O)cc1)/C=C/c1ccc(O)cc1
3. CC(C)NC(=O)N1CCN(c2ccncc2S(=O)(=O)N2CCCCC2)CC1

Output line:
1: 4.22% (inactive); 2: 40.2% (active); 3: 1.09% (inactive)

Give measured activation for every item shown.
1. COc1ccc(CNC(=O)COC(=O)C2=Cc3ccccc3OC2)cc1
2. COc1ccc([N+](=O)[O-])cc1NC(=O)CC1SC(=Nc2cccc(C)c2C)N(/N=C(\C)c2ccc(C)cc2)C1=O (centres undefined)
3. O=C(CSc1ncnc2sccc12)N1CCN(C(=O)c2cccs2)CC1
4. CCc1ccc2ncc(C(=O)c3ccccc3)c(N3CCOCC3)c2c1
5. CCN1CC=C2C(C#N)=C(N)C(C#N)(C#N)[C@H](c3ccoc3)[C@H]2C1
6. O=C(/C=C/c1ccc2c(c1)OCCO2)c1ccc(O)cc1
7. CC1(C)Cc2nc3sc4c(SCC(=O)NC(c5ccccc5)c5ccccc5)ncnc4c3cc2CO1

Output line:
1. -9.53% (inactive)
2. -1.84% (inactive)
3. 0.04% (inactive)
4. 6.46% (inactive)
5. 62% (active)
6. -0.07% (inactive)
7. -4.73% (inactive)

Give measured activation for every item shown.
1. ClC1(Cl)CC1CSc1ncn[nH]1 (centres undefined)
2. COc1ccc(CNCCCNCc2ccc(OC)c(OC)c2)cc1OC
3. O=C(O)/C=C/c1ccc(OCCCF)cc1
4. N#C/C(=C\C1=C(N2CCOCC2)C(=C\c2ccccc2)/CC1)C(=O)Nc1ccccc1F
5. CNc1nc2c(C)cccn2c(=O)c1C=Nc1ccc(OC)cc1
6. Cc1ccc(CS(=O)(=O)CCC(=O)NC2CC2)cc1

Output line:
["2.22% (inactive)", "0.94% (inactive)", "-2.79% (inactive)", "11.9% (inactive)", "-1.57% (inactive)", "-1.46% (inactive)"]

###

Give activation for every item shown.
target: Troponin I, cardiac muscle (Homo sapiens) + Troponin T, cardiac muscle (Homo sapiens) + Troponin C, slow skeletal and cardiac muscles (Homo sapiens) (UniProt P19429+P45379+P63316); experiment: calcium sensitizers of cardiac thin filaments – biochemical, IANBD-TnC fluorescence, EC20 calcium, primary screen (AID 493008); conditions: IANBD-labeled TnC RTF fluorescence at EC20 calcium; at 7.2 µM; active compounds read high; 0% EC20 calcium, 100% full calcium;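 also: rise in fluorescence read as greater calcium sensitivity of cardiac thin filaments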
Screen size: about 340,000 compounds; about 800 (0.24%) were called active. Shown is part of a subset that was picked to be rich in actives.
Numbers only, in %.

Worked set:
Input line: Which activation value belongs to Cc1ccc(S(=O)(=O)n2cccc2CO)cc1 ?
Output line: 3.89

Input line: Can you check C[n+]1ccc(/C=C/c2c[nH]c3ccccc23)cc1 next?
Output line: 154

Input line: Can you check OC1CCCN(c2ncnc3c2nnn3Cc2c(F)cccc2Cl)C1 (stereo unspecified) next?
Output line: 6.74

Input line: Can you check Cc1ccc(-c2nn(-c3ccccc3)cc2/C=C2\SC(=S)N(CCCCCC(=O)O)C2=O)o1 next?
Output line: 48.1

Input line: Can you check Oc1[nH]c2ccccc2c1N=Nc1c(F)c(F)c(F)c(F)c1F next?
Output line: 3.02

Give measured activation for every item shown.
1. COc1ccccc1-n1nnnc1S(=O)(=O)Cc1ccc(Cl)cc1
2. CCOc1ccc2oc(C(=O)N(CC)CC(=O)Nc3ccc(NC(C)=O)cc3)c(C)c2c1
3. CCC1(C)COC(c2ccc(OC)c(OC)c2)OC1 (stereo unspecified)
4. O=C(NNC1CC(=O)N(c2cccc(Cl)c2)C1=O)c1cccnc1 (stereo unspecified)

Output line:
-4.59
-0.31
15.5
3.38

Give measured activation for every item shown.
1. Cc1ccc(CNC(=O)c2ccc3c(c2)S(=O)(=O)c2ccccc2C3=O)cc1
2. CCOC(=O)C1=C(C)NC2=C(C(=O)CC(C)(C)C2)C1c1ccsc1 (stereo unspecified)

Output line:
-0.11
8.26
